- Test Description: AUC in rat at 300 mg/kg, po using spray dry sample
- Type: ADME, organism-based
- Condition: in vivo

>  <Structure Notation>
CNC(=O)c1c(-c2ccc(F)cc2)oc2cc(N(C)S(C)(=O)=O)c(-c3ccc4ncn5c6cccc(F)c6cc5c4n3)cc12

>  <AUC>
181 µM·h

$$$$

---

- Test Description: Clearance in monkey at 1 mg/kg, iv
- Format: ADME, organism-based, Macaca mulatta
- Condition: rhesus monkey, in vivo
Readout: clearance (mL/min/kg)

>  <Structure Notation>
CNC(=O)c1c(-c2ccc(F)cc2)oc2cc(N(C)S(C)(=O)=O)c(-c3ccc4ccn5c6cccc(F)c6cc5c4n3)cc12

>  <Reported Measurement>
5.6

$$$$
>  <Structure Notation>
CNC(=O)c1c(-c2ccc(F)cc2)oc2cc(N(C)S(C)(=O)=O)c(-c3ccc4c(n3)-c3cc5c(F)cccc5n3CN4)cc12

>  <Reported Measurement>
7.7

$$$$
>  <Structure Notation>
CNC(=O)c1c(-c2ccc(F)cc2)oc2cc(N(C)S(C)(=O)=O)c(-c3ccc4ncn5c6cccc(F)c6cc5c4n3)cc12

>  <Reported Measurement>
4.7

$$$$
>  <Structure Notation>
CNC(=O)c1c(-c2ccc(F)cc2)oc2cc(N(C)S(C)(=O)=O)c(-c3ccc4c(n3)-c3cc5c(F)cccc5n3CC4)cc12

>  <Reported Measurement>
11

$$$$
